Source listed as patent US8158792B2.

Measured IC50, listed per entry for reference.
Assay Target: human lung tryptase
Test: β-Tryptase In-Vitro Enzyme Assay
Recorded Conditions: human lung tryptase 1 nM, substrate H-D-HHT-Ala-Arg-pNa 500 μM, pH 7.4, room temperature

Molecule: COc1cccc(C(=O)N2CCC3(CC2)COc2ccc(CN)cc23)c1 [Cpd 53]
IC50, nM: 870
--
Molecule: NCc1ccc2c(c1)C1(CCN(C(=O)C3=CCc4ccccc43)CC1)CO2 [Cpd 286]
IC50, nM: 920
--
Molecule: COc1ccc(C(=O)N2CCC3(CC2)COc2ccc(CN)cc23)cc1Cl [Cpd 28]
IC50, nM: 120
--
Molecule: NCc1ccc2c(c1)C1(CCN(C(=O)c3cccc(C(N)=O)c3)CC1)CO2 [Cpd 273]
IC50, nM: 1200
--
Molecule: Cc1ccc(C(=O)N2CCC3(CC2)COc2ccc(CN)cc23)cc1I [Cpd 50]
IC50, nM: 36
--
Molecule: Cc1nc(-c2cccnc2)sc1C(=O)N1CCC2(CC1)COc1ccc(CN)cc12 [Cpd 124]
IC50, nM: 1100
--
Molecule: COc1ccc2[nH]cc(C(=O)N3CCC4(CC3)COc3ccc(CN)cc34)c2c1 [Cpd 238]
IC50, nM: 210
--
Molecule: COc1cccc(CC(=O)N2CCC3(CC2)COc2ccc(CN)cc23)c1 [Cpd 99]
IC50, nM: 580
--
Molecule: NCc1ccc2c(c1)C1(CCN(C(=O)c3ccc(F)c(Br)c3)CC1)CO2 [Cpd 31]
IC50, nM: 55
--
Molecule: NCc1ccc2c(c1)C1(CCN(C(=O)c3ccc(Cl)c(Cl)c3)C(=O)C1)CO2 (stereo not shown) [Cpd 262]
IC50, nM: 4500
--
Molecule: Cc1nc2cc(C(=O)N3CCC4(CC3)COc3ccc(CN)cc34)ccc2n1-c1ccccc1 [Cpd 14]
IC50, nM: 3700
--
Molecule: NCc1ccc2c(c1)C1(CCN(C(=O)Cc3ccc(F)cc3)CC1)CO2 [Cpd 90]
IC50, nM: 980
--
Molecule: NCc1ccc2c(c1)C1(CCN(C(=O)/C=C/c3cccc(O)c3)CC1)CO2 [Cpd 265]
IC50, nM: 870
--
Molecule: CSc1cccc(CC(=O)N2CCC3(CC2)COc2ccc(CN)cc23)c1 [Cpd 103]
IC50, nM: 960
--
Molecule: NCc1ccc2c(c1)C1(CCN(C(=O)/C=C/c3ccc(F)c(F)c3)CC1)CO2 [Cpd 111]
IC50, nM: 190
--
Molecule: NCc1ccc2c(c1)C1(CCN(C(=O)/C=C/c3ccc4c(c3)OCO4)CC1)CO2 [Cpd 187]
IC50, nM: 790
--
Molecule: NCc1ccc2c(c1)C1(CCN(C(=O)Cc3ccc(I)cc3)CC1)CO2 [Cpd 96]
IC50, nM: 450
--
Molecule: NCc1ccc2c(c1)C1(CCN(C(=O)c3c[nH]c4ccccc34)CC1)CO2 [Cpd 236]
IC50, nM: 750
--
Molecule: CC(C)(C)c1ccc(C(=O)N2CCC3(CC2)COc2ccc(CN)cc23)s1 [Cpd 266]
IC50, nM: 200

====

Assay Target: human lung tryptase
Test: β-Tryptase In-Vitro Enzyme Assay
Recorded Conditions: human lung tryptase 1 nM, substrate H-D-HHT-Ala-Arg-pNa 500 μM, pH 7.4, room temperature
pIC50: −log10 of the molar value.
Label scheme for pIC50: lower than 7 is 0.0, 7 and above is 1.0.

Structure: Cc1cc(C(=O)N2CCC3(CC2)COc2ccc(CN)cc23)sc1C(O)O
Class Name: 0.0
//
Structure: COC(=O)c1ccc(C(=O)N2CCC3(CC2)COc2ccc(CN)cc23)s1
Class Name: 0.0
//
Structure: CSc1sc(C(=O)N2CCC3(CC2)COc2ccc(CN)cc23)cc1C#N
Class Name: 1.0
//
Structure: CC(C)(C)c1ccc(C#Cc2ccc(C(=O)N3CCC4(CC3)COc3ccc(CN)cc34)o2)cc1
Class Name: 0.0
//
Structure: NCc1ccc2c(c1)C1(CCN(C(=O)c3cc(Br)c(Br)s3)CC1)CO2
Class Name: 1.0
//
Structure: NCc1ccc2c(c1)C1(CCN(C(=O)c3ccc(NC(=O)Cn4cnc5ccccc54)cc3)CC1)CO2
Class Name: 0.0
//
Structure: NCc1ccc2c(c1)C1(CCN(C(=O)c3ccc(-c4ccc(Br)cc4)o3)CC1)CO2
Class Name: 1.0
//
Structure: NCc1ccc2c(c1)C1(CCN(C(=O)/C=C/c3cccc(F)c3F)CC1)CO2
Class Name: 0.0
//
Structure: O=CNCc1ccc2c(c1)C1(CCN(C(=O)c3ccc(C#Cc4ccccc4)o3)CC1)CO2
Class Name: 1.0
